TARGET OR TEST SYSTEM: T1, human VEGF165 (human, UniProt P15692)
T1 chain: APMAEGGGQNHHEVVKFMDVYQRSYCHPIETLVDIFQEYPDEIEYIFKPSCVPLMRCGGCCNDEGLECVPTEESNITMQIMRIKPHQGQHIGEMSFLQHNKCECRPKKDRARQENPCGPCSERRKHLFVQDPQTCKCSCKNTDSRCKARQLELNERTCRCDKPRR
ASSAY COMMENT: SPR, pH 5
PROPERTY MEASURED: pKd
Friendly reminder that pKd comes from taking -log10 of the concentration in mol/L.

- BINDER: "534-min C-His (antibody, V domains shown) VH: EVQLVESGGGLVQPGGSLRLSCAASGFSLSYYYMSWVRQAPGKGLEWVSIIGPGDYTDYASWAKGRFTISRDNSKNTLYLQMNSLRAEDTAVYYCAKGDDNSGWGEDIWGQGTLVTVSS VL: EIVMTQSPSTLSASVGDRVIITCQASQSINIWLSWYQQKPGKAPKLLIYKESTLASGVPSRFSGSGSGAEFTLTISSLQPDDFATYYCQNNYDSGNNGFPFGQGTKLTVLG"
  pKd: 7.47

Next item in the queue.
Q: For 509-min (antibody, V domains shown) VH: EVQLVESGGGLVQPGGSLRLSCAASGFSLSSYYMCWVRQAPGKGLEWVSCLDYVGDTDYASWAKGRFTISRDNSKNTLYLQMNSLRAEDTAVYYCAKTDDSRGWGLNIWGQGTLVTVSS VL: EIVMTQSPSTLSASVGDRVIITCQASQNIRIWLSWYQQKPGKAPKLLIYKASTLESGVPSRFSGSGSGAEFTLTISSLQPDDFATYYCQNNAHYSTNGGTFGQGTKLTVLG , what is its reported pKd?
A: 8.74
